- subject_of_test: Protein kinase C delta type (Mus musculus, UniProt P28867)
- experimental_details: Binding of Indolactam-V(ILV) to mutant Protein kinase C delta C1b domain (Leu20 to Gly)
reported_metric: Ki (nM)
One number for each entry, in nM.

### Prompt Enter measured Ki, system Protein kinase C delta type (Mus musculus, UniProt P28867), for the compound shown: CC(C)[C@H]1C(=O)N[C@H](CO)Cc2c[nH]c3cccc(c23)N1C [INDOLACTUM]
### Response 66.2

---

- subject_of_test: Protein kinase C delta type (Mus musculus, UniProt P28867)
- experimental_details: Binding of Indolactam-V(ILV) to mutant Protein kinase C delta C1b domain (Gln27 to Val)
reported_metric: pKi
Give bare numbers, as −log10 of the molar value.

### Prompt Provide one value: measured pKi of CC(C)[C@H]1C(=O)N[C@H](CO)Cc2c[nH]c3cccc(c23)N1C [INDOLACTUM]
### Response 5.96

Provenance of the data: ChEMBL document CHEMBL1132277
